Task for the reader: assign each of the following compounds its reported IC50.
Tested on: MG-63;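 note: growth inhibition of human MG-63 cells, read out with a cell viability assay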
Assay: cells
Format: functional, cell-based, Homo sapiens
Settings: Homo sapiens, MG-63
Description: SANGER: Inhibition of human MG-63 cell growth in a cell viability assay.

O=C1N=C(NCc2cccs2)S/C1=C\c1ccc2ncccc2c1 | > 5 µM

Hey, quick one: what's IC50 for each of these?
1. Cn1cc(C2=C(c3ccc(Cl)cc3Cl)C(=O)NC2=O)c2ccccc21
2. COC(=O)CNC(=O)C(=O)OC
3. Cc1cnc(-c2cnc(NCCNc3ccc(C#N)cn3)nc2-c2ccc(Cl)cc2Cl)[nH]1
4. CC(=O)O[C@@H]1[C@@H](OC(C)=O)[C@@H](O)[C@H](Oc2c(-c3ccc(O)cc3)oc3cc(O)cc(O)c3c2=O)O[C@H]1C

["> 10 µM", "144 µM", "> 2.56 µM", "> 10 µM"]

Hey, quick one: what's IC50 for each of these?
1. O=c1cc(-c2cccc3c2Sc2ccccc2S3)oc(N2CCOCC2)c1
2. Cn1cncc1[C@@](N)(c1ccc(Cl)cc1)c1ccc2c(c1)c(-c1cccc(Cl)c1)cc(=O)n2C
3. COc1ccc(C2=N[C@@H](c3ccc(Cl)cc3)[C@@H](c3ccc(Cl)cc3)N2C(=O)N2CCNC(=O)C2)c(OC(C)C)c1

["> 10 µM", "1.84 µM", "> 8 µM"]

----------
Task for the reader: assign each of the following compounds its reported IC50.
System: IGROV-1;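 note: reduction of IGROV-1 cell growth, read out with a viability assay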
Test: cells
Type: functional, cell-based, Homo sapiens
Settings: Homo sapiens, IGROV-1
Description: SANGER: Inhibition of human IGROV-1 cell growth in a cell viability assay.
Answers are plain numbers, in µM.

Study these solved cases before continuing.
CN(c1ncccc1CNc1nc(Nc2ccc3c(c2)CC(=O)N3)ncc1C(F)(F)F)S(C)(=O)=O | 0.81
C=CCc1cccc(/C=N/NC(=O)CN2CCN(Cc3ccccc3)CC2)c1O | 1.34

Hey, quick one: what's IC50 for each of these?
1. COC(=O)CNC(=O)C(=O)OC
2. Nc1ccn([C@@H]2O[C@H](CO)[C@@H](O)[C@@H]2O)c(=O)n1
3. Cc1ccc(Nc2nccc(N(C)c3ccc4c(C)n(C)nc4c3)n2)cc1S(N)(=O)=O

[1390, 1.79, 3.25]

----------
Test system: HEC-1
Assay: cells
Assay type: functional, cell-based, Homo sapiens
Settings: Homo sapiens, HEC-1
Description: SANGER: Inhibition of human HEC-1 cell growth in a cell viability assay.
EXPERIMENTAL_ENDPOINT: IC50

Study these solved cases before continuing.
Cn1cc(C2=C(c3ccc(Cl)cc3Cl)C(=O)NC2=O)c2ccccc21 | > 10 µM
O=c1cc(-c2cccc3c2Sc2ccccc2S3)oc(N2CCOCC2)c1 | > 10 µM
Nc1ccn([C@@H]2O[C@H](CO)[C@@H](O)[C@@H]2O)c(=O)n1 | 1.79 µM

Note down IC50 recorded for O=C(NOCC1CC1)c1ccc(F)c(F)c1Nc1ccc(I)cc1Cl
> 10 µM

----------
Test system: BCPAP;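 note: growth inhibition of BCPAP cells, read out in a cell viability assay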
Assay: cells
Type: functional, cell-based, Homo sapiens
Settings: Homo sapiens, BCPAP
Description: SANGER: Inhibition of human BCPAP cell growth in a cell viability assay.
Task for the reader: assign each of the following molecules its reported pIC50.
Give bare numbers, as −log10 of the molar value.

Hey, quick one: what's pIC50 for each of these?
1. CC(=O)O[C@@]12CO[C@@H]1C[C@H](O)[C@@]1(C)C(=O)[C@H](O)C3=C(C)[C@@H](OC(=O)[C@H](O)[C@@H](NC(=O)OC(C)(C)C)c4ccccc4)C[C@@](O)([C@@H](OC(=O)c4ccccc4)[C@H]21)C3(C)C
2. C=CCNC1=C2C[C@@H](C)C[C@H](OC)[C@H](O)[C@@H](C)/C=C(\C)[C@H](OC(N)=O)[C@@H](OC)/C=C\C=C(/C)C(=O)NC(=CC1=O)C2=O
3. CN(Cc1cnc2nc(N)nc(N)c2n1)c1ccc(C(=O)N[C@@H](CCC(=O)O)C(=O)O)cc1 [METHOTREXATE]

9.02
6.72
7.37

Hey, quick one: what's pIC50 for each of these?
1. COc1ccc(-c2ccc3c(N4CCOC[C@@H]4C)nc(N4CCOC[C@@H]4C)nc3n2)cc1CO
2. COC(=O)CNC(=O)C(=O)OC

[6.23, 3.68]
